# Target Or Test System: Sodium- and chloride-dependent GABA transporter 1 (Homo sapiens, UniProt P30531)
# Sequence (P30531 whole entry): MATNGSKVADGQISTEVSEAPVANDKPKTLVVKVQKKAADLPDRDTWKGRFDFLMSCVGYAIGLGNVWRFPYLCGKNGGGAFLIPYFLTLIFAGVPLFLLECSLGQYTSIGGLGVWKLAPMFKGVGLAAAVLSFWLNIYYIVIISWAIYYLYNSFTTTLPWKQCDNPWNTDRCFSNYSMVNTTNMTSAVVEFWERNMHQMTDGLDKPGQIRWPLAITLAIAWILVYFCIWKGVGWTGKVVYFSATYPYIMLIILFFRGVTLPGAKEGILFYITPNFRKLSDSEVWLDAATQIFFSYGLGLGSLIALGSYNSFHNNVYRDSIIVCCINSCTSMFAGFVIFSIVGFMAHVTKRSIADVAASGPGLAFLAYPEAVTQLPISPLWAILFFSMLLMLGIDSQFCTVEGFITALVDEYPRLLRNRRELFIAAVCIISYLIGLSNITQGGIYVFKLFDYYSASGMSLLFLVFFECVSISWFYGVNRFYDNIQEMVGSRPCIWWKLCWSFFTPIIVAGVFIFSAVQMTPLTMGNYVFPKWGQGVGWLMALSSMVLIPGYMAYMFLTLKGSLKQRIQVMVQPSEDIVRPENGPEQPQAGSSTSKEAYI
# Type: cell-based
Readout Name: IC50

Examples with answers:
O=C(NC1CCN(Cc2ccccc2)CC1)c1ccc2c(c1)OCO2 ... > 100 µM
O=C(NC1CCN(Cc2ccccc2)CC1)c1ccc2ccccc2c1 ... > 100 µM

Request: Please report the recorded IC50 for `O=C(NC1CCN(Cc2ccccc2)CC1)c1ccc(Cl)cc1Cl` .
Response: > 100 µM

----------
# Target Or Test System: GABA transporter 3 (Mus musculus)
# Sequence (P31649 whole entry): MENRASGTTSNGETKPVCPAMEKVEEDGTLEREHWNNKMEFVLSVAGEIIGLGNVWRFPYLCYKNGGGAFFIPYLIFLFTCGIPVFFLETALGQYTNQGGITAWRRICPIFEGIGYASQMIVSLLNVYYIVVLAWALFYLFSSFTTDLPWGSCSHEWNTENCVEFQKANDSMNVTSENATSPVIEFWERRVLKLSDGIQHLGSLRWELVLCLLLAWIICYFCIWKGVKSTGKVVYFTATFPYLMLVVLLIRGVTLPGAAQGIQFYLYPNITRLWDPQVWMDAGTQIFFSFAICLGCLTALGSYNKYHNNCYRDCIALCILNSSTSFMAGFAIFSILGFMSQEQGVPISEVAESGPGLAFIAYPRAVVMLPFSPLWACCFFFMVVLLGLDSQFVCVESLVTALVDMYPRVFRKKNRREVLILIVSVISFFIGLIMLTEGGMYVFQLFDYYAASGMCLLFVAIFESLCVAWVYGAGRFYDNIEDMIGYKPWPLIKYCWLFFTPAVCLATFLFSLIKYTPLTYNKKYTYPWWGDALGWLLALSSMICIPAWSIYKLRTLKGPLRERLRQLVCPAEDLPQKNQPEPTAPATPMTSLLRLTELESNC
# Assay Summary: Inhibition of mouse GAT2 expressed in hamster BHK cells assessed as reduction in [3H]GABA uptake after 3 mins by scintillation counting method
# Stated Conditions: read-out: Ki(app)
Readout Name: Ki (µM)
Report the figure in µM without appending any unit label.

Request: Ki lookup needed for `COc1ccccc1C1(O)CCN(CCCn2c3ccccc3c3ccccc32)CC1` , thanks.
Response: 41
